Test: in vivo
Conditions: female, New Zealand White, rabbit, 1000 mg/kg/day
endpoint: NOAEL

Requested read-out: NOAEL. Entry: CC(C)(C)[C@H](NC(=O)C(F)(F)F)C(=O)N1C[C@H]2[C@@H]([C@H]1C(=O)N[C@H](C#N)C[C@@H]1CCNC1=O)C2(C)C [NMV, nirmatrelvir]
300 mg/kg/day

###

Assay: Maternal toxicokinetics, rabbit EFD study
Type: in vivo
Details: female, New Zealand White, rabbit, in vivo, po, 300 mg/kg/day
endpoint: Cmax (ng/mL)
Give just the numeric value; ng/mL need not be written.

Which Cmax reading was recorded for the molecule CC(C)(C)[C@H](NC(=O)C(F)(F)F)C(=O)N1C[C@H]2[C@@H]([C@H]1C(=O)N[C@H](C#N)C[C@@H]1CCNC1=O)C2(C)C [NMV, nirmatrelvir] ?
42900
